Hello, the source for this data is patent US6479487B1, in case you need it.

# Test system: DMS-114
# protocol.summary: In vitro tumor cell proliferation, DMS-114
# Format: cell-based, human
# assay.setup: DMS-114; many values given with an undefined *; trihydrochloride; read-out: In vitro Tumor Cell Proliferation (IC50, μM) Lung DMS-114
Structures can show the parent of a compound that is named as a salt.
# maps each entry to its IC50
measurement.kind: IC50 (µM)

>>> measurement("N[C@H]1CC[C@H](Nc2nc(NC3CCN(Cc4cccc(F)c4)CC3)c3ncn(C4CCCC4)c3n2)CC1 [Example 147-j, trihydrochloride]")
0.25
>>> measurement("COc1cc(CN2CCC(Nc3nc(N[C@H]4CC[C@H](N)CC4)nc4c3ncn4C3CCCC3)CC2)cc(OC)c1 [Example 147-c, trihydrochloride]")
0.32
>>> measurement("N[C@H]1CC[C@H](Nc2nc(NC3CCN(Cc4cccc(Oc5ccccc5)c4)CC3)c3ncn(C4CCCC4)c3n2)CC1 [Example 147-ad, trihydrochloride]")
0.62

* * *

Item-by-item account of IC50
# System: MDA-MB-435
# protocol.summary: In vitro tumor cell proliferation, MDA-MB-435
# Type: cell-based
# assay.setup: MDA-MB-435; values given with an undefined *; trihydrochloride; read-out: In vitro Tumor Cell Proliferation (IC50, μM) Breast MDA-MB-435
Counter-ions that a name gives are not always drawn.
measurement.kind: IC50 (µM)

>>> measurement("N[C@H]1CC[C@H](Nc2nc(NC3CCN(CC4CCCCC4)CC3)c3ncn(C4CCCC4)c3n2)CC1 [Example 147-s, trihydrochloride]")
0.43
>>> measurement("N[C@H]1CC[C@H](Nc2nc(NC3CCN(Cc4ccc5ccccc5c4)CC3)c3ncn(C4CCCC4)c3n2)CC1 [Example 147-p, trihydrochloride]")
0.68
>>> measurement("N[C@H]1CC[C@H](Nc2nc(NC3CCN(Cc4ccc(F)c(F)c4)CC3)c3ncn(C4CCCC4)c3n2)CC1 [Example 147-u, trihydrochloride]")
0.48
>>> measurement("N[C@H]1CC[C@H](Nc2nc(NC3CCN(Cc4cc(Cl)ccc4Cl)CC3)c3ncn(C4CCCC4)c3n2)CC1 [Example 147-r, trihydrochloride]")
0.65
>>> measurement("CCN(CC)CCNc1nc(N[C@H]2CC[C@H](N)CC2)nc2c1ncn2C1CCCC1 [Example 6, trihydrochloride]")
11
>>> measurement("COc1cc(CN2CCC(Nc3nc(N[C@H]4CC[C@H](N)CC4)nc4c3ncn4C3CCCC3)CC2)cc(OC)c1 [Example 147-c, trihydrochloride]")
0.34
>>> measurement("N[C@H]1CC[C@H](Nc2nc(NCCNc3ccccc3)c3ncn(C4CCCC4)c3n2)CC1 [Example 31, trihydrochloride]")
2.6
>>> measurement("N[C@H]1CC[C@H](Nc2nc(NC3CCN(Cc4ccc(F)cc4Cl)CC3)c3ncn(C4CCCC4)c3n2)CC1 [Example 147-t, trihydrochloride]")
0.69
>>> measurement("N[C@H]1CC[C@H](Nc2nc(NC3CCN(Cc4cccc(Oc5ccccc5)c4)CC3)c3ncn(C4CCCC4)c3n2)CC1 [Example 147-ad, trihydrochloride]")
1
>>> measurement("N[C@H]1CC[C@H](Nc2nc(NC3CCN(Cc4cccc(F)c4F)CC3)c3ncn(C4CCCC4)c3n2)CC1 [Example 147-e, trihydrochloride]")
0.6
>>> measurement("N[C@H]1CC[C@H](Nc2nc(NC3CCN(Cc4ccc(Cl)cc4Cl)CC3)c3ncn(C4CCCC4)c3n2)CC1 [Example 147-x, trihydrochloride]")
0.92
>>> measurement("N[C@H]1CC[C@H](Nc2nc(NC3CCN(Cc4cccc5ccccc45)CC3)c3ncn(C4CCCC4)c3n2)CC1 [Example 147-a, trihydrochloride]")
0.408

* * *

# System: DMS-114
# protocol.summary: In vitro tumor cell proliferation, DMS-114
# Type: cell-based, human
# assay.setup: DMS-114; many values given with an undefined *; trihydrochloride; read-out: In vitro Tumor Cell Proliferation (IC50, μM) Lung DMS-114
# Procedure: DMS-1 14: human small cell lung carcinoma; The proliferation of tumor cells was measured using a sulforhodamine B assay as described in Skehan, P., et al., J. Natl. Cancer Inst. […] Tumor cells were harvested with trypsin-EDTA, cells that excluded trypan blue were counted, added to 96-well plates and incubated overnight at 37° C. Drug was added to the wells following dilution in culture medium. […] Alternatively, the CyQUANT cell proliferation assay was used to quantitate cell proliferation. […]
Where a name gives a salt, the structure may show the parent alone.
measurement.kind: IC50 (µM)

>>> measurement("N[C@H]1CC[C@H](Nc2nc(NC3CCN(Cc4cc(Cl)ccc4Cl)CC3)c3ncn(C4CCCC4)c3n2)CC1 [Example 147-r, trihydrochloride]")
0.48
>>> measurement("N[C@H]1CC[C@H](Nc2nc(NCC3CCN(Cc4ccccc4)CC3)c3ncn(C4CCCC4)c3n2)CC1 [Example 147-ac, trihydrochloride]")
1
>>> measurement("N[C@H]1CC[C@H](Nc2nc(NC3CCN(Cc4ccc(Cl)cc4Cl)CC3)c3ncn(C4CCCC4)c3n2)CC1 [Example 147-x, trihydrochloride]")
0.7
>>> measurement("N[C@H]1CC[C@H](Nc2nc(NC3CCN(CC4CCCCC4)CC3)c3ncn(C4CCCC4)c3n2)CC1 [Example 147-s, trihydrochloride]")
0.3

* * *

Measured IC50 by item
# Test system: HCT-15
# protocol.summary: In vitro tumor cell proliferation, HCT-15
# Format: cell-based, human
# assay.setup: Homo sapiens, HCT-15, HCT-15; read-out: In vitro Tumor Cell Proliferation (IC50, μM) Colon HCT-15
Counter-ions that a name gives are not always drawn.
measurement.kind: IC50 (µM)

>>> measurement("COc1ccccc1CNc1nc(N[C@H]2CC[C@H](N)CC2)nc2c1ncn2C1CCCC1 [Example 12, dihydrochloride]")
16
>>> measurement("Cn1cnc2c(NCc3ccccc3)nc(NCCO)nc21 [Olomoucine, reference compound]")
62
>>> measurement("COc1ccc(CNc2nc(N[C@H]3CC[C@H](N)CC3)nc3c2ncn3C2CCCC2)cc1 [Example 8, dihydrochloride]")
4.5
>>> measurement("N[C@H]1CC[C@H](Nc2nc(NCc3ccccc3C(F)(F)F)c3ncn(C4CCCC4)c3n2)CC1 [Example 25, dihydrochloride]")
4

* * *

Catalogue of pIC50 readings, one per entry.
# target: cdk4/cyclin D1 (Homo sapiens)
# Construct: made in house; host or cells: Sf9 insect cells (Bac-to-Bac baculovirus, pFastBac)
# Sequence (P11802 whole entry): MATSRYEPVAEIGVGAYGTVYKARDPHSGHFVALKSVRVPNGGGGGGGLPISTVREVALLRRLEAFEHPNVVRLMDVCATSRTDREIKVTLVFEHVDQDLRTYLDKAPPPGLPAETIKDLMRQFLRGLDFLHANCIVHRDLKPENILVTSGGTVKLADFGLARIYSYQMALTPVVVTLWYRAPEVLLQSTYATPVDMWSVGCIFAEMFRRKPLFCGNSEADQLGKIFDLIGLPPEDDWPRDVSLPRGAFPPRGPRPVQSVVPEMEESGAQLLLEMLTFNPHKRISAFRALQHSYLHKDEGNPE
# Sequence (P24385 whole entry partner): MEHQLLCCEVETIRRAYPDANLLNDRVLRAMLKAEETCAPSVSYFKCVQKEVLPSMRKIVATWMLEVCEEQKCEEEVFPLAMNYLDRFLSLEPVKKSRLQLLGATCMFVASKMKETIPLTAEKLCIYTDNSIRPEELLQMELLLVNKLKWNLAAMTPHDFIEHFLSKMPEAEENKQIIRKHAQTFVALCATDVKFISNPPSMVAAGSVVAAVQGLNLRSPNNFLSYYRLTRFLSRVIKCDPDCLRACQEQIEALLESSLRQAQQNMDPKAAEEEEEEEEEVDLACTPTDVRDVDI
# protocol.summary: Cyclin-dependent Kinase 4 Assay (cdk4/cyclin D1, GST-Rb substrate)
# Assay type: biochemical
# assay.setup: cdk4/cyclin D1 insect cell lysate, 10 μM ATP, 30 min at 37° C., several values = separate determinations, read-out: CDK4 Inhibition IC50
pIC50: −log10 of the molar value. Where a name gives a salt, the structure may show the parent alone.
measurement.kind: pIC50

>>> measurement("N[C@H]1CC[C@H](Nc2nc(NCCNc3ccccc3)c3ncn(C4CCCC4)c3n2)CC1 [Example 31, trihydrochloride]")
7.00
>>> measurement("N[C@H]1CC[C@H](Nc2nc(NC3CCN(Cc4ccc(C(F)(F)F)cc4)CC3)c3ncn(C4CCCC4)c3n2)CC1")
4.70
>>> measurement("COc1cccc(CCNc2nc(N[C@H]3CC[C@H](N)CC3)nc3c2ncn3C2CCCC2)c1 [Example 27, dihydrochloride]")
5.85
>>> measurement("COc1cccc(CNc2nc(N[C@H]3CC[C@H](N)CC3)nc3c2ncn3C(C)C)c1OC [Example 30, dihydrochloride]")
5.62
>>> measurement("CCCCCCCCCCCCNc1nc(N[C@H]2CC[C@H](N)CC2)nc2c1ncn2C1CCCC1 [Example 36, dihydrochloride]")
5.35
>>> measurement("COc1ccc(CNc2nc(N[C@H]3CC[C@H](N)CC3)nc3c2ncn3C(C)C)cc1 [Example 37, dihydrochloride]")
5.28
>>> measurement("COc1cccc(CNc2nc(N[C@H]3CC[C@H](N)CC3)nc3c2ncn3C2CCCC2)c1OC [Example 13, dihydrochloride]")
5.54
>>> measurement("COc1ccc(CCNc2nc(N[C@H]3CC[C@H](N)CC3)nc3c2ncn3C2CCCC2)cc1 [Example 14, dihydrochloride]")
5.82

* * *

# Tested on: PC-3
# protocol.summary: In vitro tumor cell proliferation, PC-3
# Assay type: cell-based, human
# assay.setup: PC-3; many values given with an undefined *; trihydrochloride; read-out: In vitro Tumor Cell Proliferation (IC50, μM) Prostate PC-3
Where a name gives a salt, the structure may show the parent alone.
The entries below come with measured IC50 values attached.
measurement.kind: IC50

>>> measurement("N[C@H]1CC[C@H](Nc2nc(NC3CCN(Cc4ccc5ccccc5c4)CC3)c3ncn(C4CCCC4)c3n2)CC1 [Example 147-p, trihydrochloride]")
"0.66 µM"
>>> measurement("N[C@H]1CC[C@H](Nc2nc(NC3CCN(Cc4cccc(F)c4)CC3)c3ncn(C4CCCC4)c3n2)CC1 [Example 147-j, trihydrochloride]")
"0.26 µM"
>>> measurement("N[C@H]1CC[C@H](Nc2nc(NC3CCN(Cc4cc(Cl)cc(Cl)c4)CC3)c3ncn(C4CCCC4)c3n2)CC1 [Example 147-w, trihydrochloride]")
"0.46 µM"
>>> measurement("N[C@H]1CC[C@H](Nc2nc(NC3CCN(Cc4ccccc4F)CC3)c3ncn(C4CCCC4)c3n2)CC1 [Example 147-k, trihydrochloride]")
"0.34 µM"
>>> measurement("N[C@H]1CC[C@H](Nc2nc(NC3CCN(Cc4ccccc4C(F)(F)F)CC3)c3ncn(C4CCCC4)c3n2)CC1 [Example 147-b, trihydrochloride]")
"0.78 µM"
>>> measurement("N[C@H]1CC[C@H](Nc2nc(NC3CCN(Cc4cccc(F)c4F)CC3)c3ncn(C4CCCC4)c3n2)CC1 [Example 147-e, trihydrochloride]")
"0.35 µM"
>>> measurement("CCN(CC)CCNc1nc(N[C@H]2CC[C@H](N)CC2)nc2c1ncn2C1CCCC1 [Example 6, trihydrochloride]")
"8.2 µM"
>>> measurement("N[C@H]1CC[C@H](Nc2nc(NC3CCN(Cc4ccc(Cl)c(Cl)c4)CC3)c3ncn(C4CCCC4)c3n2)CC1 [Example 147-o, trihydrochloride]")
"0.92 µM"
>>> measurement("N[C@H]1CC[C@H](Nc2nc(NC3CCN(Cc4ccc(F)cc4)CC3)c3ncn(C4CCCC4)c3n2)CC1 [Example 147-l, trihydrochloride]")
"0.41 µM"
>>> measurement("N[C@H]1CC[C@H](Nc2nc(NC3CCN(CC4CCCCC4)CC3)c3ncn(C4CCCC4)c3n2)CC1 [Example 147-s, trihydrochloride]")
"0.37 µM"
>>> measurement("N[C@H]1CC[C@H](Nc2nc(NC3CCN(Cc4ccc(F)cc4Cl)CC3)c3ncn(C4CCCC4)c3n2)CC1 [Example 147-t, trihydrochloride]")
"0.45 µM"
>>> measurement("N[C@H]1CC[C@H](Nc2nc(NC3CCN(Cc4ccc(Cl)cc4Cl)CC3)c3ncn(C4CCCC4)c3n2)CC1 [Example 147-x, trihydrochloride]")
"0.65 µM"
